Task for the reader: assign each of the following compounds its reported MIC.
Test system: S. aureus B1
Experiment: in vitro antibacterial activity (MIC measuring method of Japanese Chemotherapeutic Association)
Assay type: cell-based
Conditions: Staphylococcus aureus, B1, read-out: MIC value (minimum inhibitory concentration)
One number for each entry, in µg/mL.

Completed entries (count: 2):
smiles_representation	MIC, µg/mL
CC[C@H]1OC(=O)[C@H](C)[C@@H](OC(=O)Cc2ccc([N+](=O)[O-])cc2)[C@H](C)[C@@H](O[C@@H]2O[C@H](C)C[C@H](N(C)C)[C@H]2O)[C@](C)(O)C[C@@H](C)C(=NO)[C@H](C)[C@H]2OC(=O)O[C@@]21C	0.1
CC[C@H]1OC(=O)[C@H](C)[C@@H](OC(=O)Cc2ccc([N+](=O)[O-])cc2[N+](=O)[O-])[C@H](C)[C@@H](O[C@@H]2O[C@H](C)C[C@H](N(C)C)[C@H]2O)[C@](C)(OC)C[C@@H](C)C(=O)[C@H](C)[C@@H](O)[C@]1(C)O	0.2

With those in mind, consider the next compound.
stdin: Determine from records and report MIC for CC[C@H]1OC(=O)[C@H](C)[C@@H](OC(=O)Cc2ccc([N+](=O)[O-])cc2)[C@H](C)[C@@H](O[C@@H]2O[C@H](C)C[C@H](N(C)C)[C@H]2O)[C@](C)(OC)C[C@@H](C)C(=NO)[C@H](C)[C@H]2OC(=O)O[C@@]21C
stdout: 0.1
